- TARGET_UNDER_TEST: Interleukin-6 (Homo sapiens) (UniProt P05231)
- Sequence (P05231 whole entry): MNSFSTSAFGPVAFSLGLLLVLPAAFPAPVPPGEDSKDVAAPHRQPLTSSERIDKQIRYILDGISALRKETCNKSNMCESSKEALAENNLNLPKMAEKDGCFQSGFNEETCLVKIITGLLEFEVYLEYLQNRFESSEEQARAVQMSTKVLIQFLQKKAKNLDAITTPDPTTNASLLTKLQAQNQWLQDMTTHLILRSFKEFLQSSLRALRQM
- ASSAY_PROTOCOL: Inhibition of IL-6 signaling pathway in human HepG2 cells transfected with p-STAT3-Luc assessed as reduction in IL-6 induced STAT3 phosphorylation at 20 ug/ml preincubated for 1 hr followed by IL-6 induction measured after 10 mins by immunoblot analysis
- Assay type: cell-based
MEASURE: inhibition (%)

Known results for compounds:
CCOc1ccccc1C(=O)Nc1ccc2oc(Nc3ccc(CC)cc3)nc2c1: 58
CCc1ccc(Nc2nc3cc(NC(=O)c4ccccc4Nc4cccc(C(F)(F)F)c4)ccc3o2)cc1: 84.6
CCc1ccc(Nc2nc3cc(NC(=O)c4ccccc4)ccc3o2)cc1: 93.1
CCCCCCCc1ccc(C(=O)Nc2ccc3oc(Nc4ccc(CC)cc4)nc3c2)cc1: 57.2
CCc1ccc(Nc2nc3cc(NC(=O)c4ccc(C(C)(C)C)cc4)ccc3o2)cc1: 86.5

[a] CCc1ccc(Nc2nc3cc(NC(=O)c4ccc(Cl)cc4)ccc3o2)cc1
[b] CCc1ccc(Nc2nc3cc(N)ccc3o2)cc1
## Task Two entries are listed, a and b . Which one carries the higher inhibition? Give the label under which the chosen entry appears.
## Result b

[I] CCc1ccc(Nc2nc3cc(NC(=O)c4ccc(CC)cc4)ccc3o2)cc1
[II] CCc1ccc(Nc2nc3cc(NC(=O)c4cccc(CCl)c4)ccc3o2)cc1
[III] CCc1ccc(Nc2nc3cc(NC(=O)c4ccc([N+](=O)[O-])cc4Cl)ccc3o2)cc1
## Task Rank order required: inhibition, descending. List each label, following the requested order.
## Result II, I, III
(II: 91.7%, I: 63.3%, III: 20%)

[1] CCc1ccc(Nc2nc3cc(NC(=O)Cc4ccccc4)ccc3o2)cc1
[2] CCc1ccc(Nc2nc3cc(NC(=O)c4ccc(OC)c(OC)c4)ccc3o2)cc1
## Task Two entries are listed, 1 and 2 . Which one carries the higher inhibition? Give the label under which the chosen entry appears.
## Result 1

* * *

- ASSAY_PROTOCOL: Cytotoxicity against human HepG2 cells assessed as cell viability at 10 ug/ml after 48 hrs by MTT assay
- Format: cell-based
- STUDY_CONDITIONS: read-out: Activity
MEASURE: viability at 48 h, 10 ug/ml (%)
Write the number in % without appending the unit.

CCc1ccc(Nc2nc3cc(NC(=O)c4cc(OC)c(OC)c(OC)c4)ccc3o2)cc1: 16.4
CCc1ccc(Nc2nc3cc(NC(=O)c4cccc(CCl)c4)ccc3o2)cc1: 41.1
CCc1ccc(Nc2nc3cc(NC(=O)c4ccc(C(C)(C)C)cc4)ccc3o2)cc1: 59.8
CCc1ccc(Nc2nc3cc(NC(=O)c4ccccc4Nc4cccc(C(F)(F)F)c4)ccc3o2)cc1: 38.2
CCc1ccc(Nc2nc3cc(NC(=O)c4ccccc4)ccc3o2)cc1: 65.6

With those in mind, consider the next molecule.
## Task Name the recorded viability at 48 h, 10 ug/ml for CCc1ccc(Nc2nc3cc(N)ccc3o2)cc1 .
## Result 70.8

* * *

- TARGET_UNDER_TEST: Interleukin-6 (Homo sapiens) (UniProt P05231)
- ASSAY_PROTOCOL: Inhibition of IL-6 signaling pathway in human HepG2 cells transfected with p-STAT3-Luc assessed as reduction in IL-6 induced STAT3 phosphorylation at 20 ug/ml preincubated for 1 hr followed by IL-6 induction measured after 10 mins by immunoblot analysis
- Format: cell-based
MEASURE: inhibition (%)

CCc1ccc(Nc2nc3cc(NC(=O)c4cc(F)cc(C(F)(F)F)c4)ccc3o2)cc1: 50.2
CCc1ccc(Nc2nc3cc(NC(=O)c4cc([N+](=O)[O-])ccc4Cl)ccc3o2)cc1: 65.6
CCc1ccc(Nc2nc3cc(NC(=O)c4cc(OC)c(OC)c(OC)c4)ccc3o2)cc1: 83.7
CCc1ccc(Nc2nc3cc(NC(=O)c4ccc(Cl)c(Cl)c4)ccc3o2)cc1: 69.3
